test: yeast display, Sf9 membrane polyspecificity reagent, FACS + sequencing; frameworks hold sequencing errors

{"QUERY SEQUENCE": "RVQLQESGGGLVQAGGSLRLSCAASGTIFIRGDMGWYRQAPGKEREFVATIDTGSNTYYADSEKGRFTISRDNATNAVYLHMNCLKPGDTAFYYCVVDYQLSGRLRYWGQGTQVTLSS", "polyreactivity (PSR sort gate)": "low polyreactivity"}
{"QUERY SEQUENCE": "QVQLVDTGGGLVQAGGSLRLSCSASGSIFEGYAMGWYRKAPGKERELVARITSDDDSTYYADSVKGRFTISRDKEKNTVYLQMNSLKAEDTAVYYCNADYYWTSLAMDSWGQGTQVTVSS", "polyreactivity (PSR sort gate)": "low polyreactivity"}
{"QUERY SEQUENCE": "QVQLVESGGGLVQAGGSLRLSCAASGRIFVVNAMGWYRQAPGKERELVATITRGASTYADSVKGRFTISRDNAKNTVYLQMNSLKPEDTAVYYCAARSGSWGQGTQVTVSS", "polyreactivity (PSR sort gate)": "high polyreactivity"}
{"QUERY SEQUENCE": "QVQLVESGGGLVQAGGSLRLSCAASGSIFFEYAMGWYRQATGKERELVAAISRRGGSTYYADSVKGRFTISRDNAKNTVYVQMNSLKPEDTAVYYCNKVNRASRGDYDYWGQGTQVTVSS", "polyreactivity (PSR sort gate)": "high polyreactivity"}
{"QUERY SEQUENCE": "QVQLVESGGGLVQAGGSLRLTCAASGITFISYAMGWYIQAPGKERELVAAITKSGGRTYYADSVKGRFTISRDNAKKTVYLQMNSLKPEDTAVYYCAAYHLRDNRIGGGYWGQGTQVTVSS", "polyreactivity (PSR sort gate)": "high polyreactivity"}
{"QUERY SEQUENCE": "QVQLVESGGGLVQAGGSLRLSCAASGSISGYYVKGWYRQAQGKERELVAAITWRGGSTYYADSVKGRFTISRDNAKNTVYLQMNSLKPEDTAVYYCNKVPGRRSTFEYWGQGTQVTVSS", "polyreactivity (PSR sort gate)": "high polyreactivity"}
{"QUERY SEQUENCE": "QVQLVESGGGLVQAGGSLRLSCAASGRIIWANTMGCYRQAPGKEREFVAAISWSTDSTYYADSVKGRFTISRDNAKNTVYFQMNSLKPEDTAVYYCNARAGYPWGVFYVTYVYWGQGTQVTVSS", "polyreactivity (PSR sort gate)": "low polyreactivity"}
{"QUERY SEQUENCE": "QVQLVESGGGLVQAGGSLRLSCAASGIIFGDNAMGLYRQEPGKERELVATISSSASTNYADSVKGRFTISRDNAKNTVYLQMNSLKPEDTAVYYCAADVYSPPNYDYWGQGTQVTVSS", "polyreactivity (PSR sort gate)": "low polyreactivity"}
{"QUERY SEQUENCE": "QVQLVESGGGLVQAGGSLRLSCAASGRIFGYYAMGWYRQAPGKERELVAAISRSGSSTYYADSVKGRFTISRDNAKNTVYLQMNSLKPEDTAVYYCNSEKYYRAYLLPFNYWGQGTQVTVSS", "polyreactivity (PSR sort gate)": "high polyreactivity"}
{"QUERY SEQUENCE": "QVQLVESGGGLVQAGGSLRLSCAASGRIFYIIAMVWYRQAPGKEWELVASITGSGGRTYYADSVKGRFTISRDNAKNTVYLQMNSLKPEDTAVYYCNADLYVGYLYYLYDYWGQGTQVTVSS", "polyreactivity (PSR sort gate)": "low polyreactivity"}
{"QUERY SEQUENCE": "QVQLVESGGGLVQAGGSLRLSCAASGRIFPSNTMGWYRQAPGKERELVADISFGGGSTYYADSVKGRFTISRDNAKNTVYLQMNSLKPEDTAVYYCNADFGFGYVSLLYEYWGQGTQVTVSS", "polyreactivity (PSR sort gate)": "low polyreactivity"}

====

assay: yeast display, Sf9 membrane polyspecificity reagent, FACS + sequencing; frameworks hold sequencing errors

{"QUERY SEQUENCE": "QVQLVESGGGLVQAGGSLRLSCAASGRTFSHNAMGWYRQAPGKERELVATINSGGSTYADSVKGRFTISRDNAKNTVYLQMNSLKPEDTAVYYCNAAHGSRAFFGGYDYWGQGTQVTVSS", "polyreactivity (PSR sort gate)": "high polyreactivity"}
{"QUERY SEQUENCE": "QVQLVESGGGLVQAGGSLRLSCAASGRTFFYYTMGWYRQAPGKERELVAAISRSGGSTYYADSVKGRFTITRDKAKNTVYLQMNSLKPEDTAVYYCAADRSRNFDWGQGTQVTVSS", "polyreactivity (PSR sort gate)": "high polyreactivity"}
{"QUERY SEQUENCE": "QVQLVESGGGLVQAGGSLRLSCAASARIFFTYVMGWYRQAHGKEREFVAAITFSDGTTYYADSVKGRFTISRDNAKNTVYLQMNSLKPEDTAVYYCNTDSFYGFVYPWTISSEVDYWGQGTQVTVSS", "polyreactivity (PSR sort gate)": "low polyreactivity"}
{"QUERY SEQUENCE": "QVQLVETGGGLDQAGGSLRLSCAASGFTLHRNAKGWYRQAPRKERELVATNSWTGGSTYYADSVKGRFTISRDTAKNTVYLQMNSLKPEDTAVYYCAARGHWSIYGYYYLGATAFGYWGQGTQVTVSS", "polyreactivity (PSR sort gate)": "low polyreactivity"}
{"QUERY SEQUENCE": "QVQRVESGGGLVQAGGSLRLSCAASGRIFRYYAMGWYRQAPGKERELVASISRRGGSTNYADSVKGRFTISRDNAKNTVYLQMNSLKPEYTAVYYSNAENWSPRGLYNYWGQGTQVTVSS", "polyreactivity (PSR sort gate)": "high polyreactivity"}

====

assay: yeast display, Sf9 membrane polyspecificity reagent, FACS + sequencing; frameworks hold sequencing errors
MEASURED ENDPOINT: polyreactivity (PSR sort gate)

{"QUERY SEQUENCE": "QEQMQEGGGGLVQAGGSLRLICASSGYNFNGDWMGWNRQAPGKERELVATINYGATTNYADSVKGRFTISRDNAKNTVYLQMNSLKPEDTAVYYCAVGGHGAQLYVYWGQGTQVTVSN", "MEASURED ENDPOINT": "polyreactivity (PSR sort gate)", "OBSERVED RESULT": "high polyreactivity"}
{"QUERY SEQUENCE": "QVQLVESGGGLVQAGGSLRLSCAASGRTFSYAMGWYRQAPGKERELVAAISSGARTYYADSVKGRFTISRDNAKNTVYLQMNSLIPEDTAVYYCNARSRYEGLNYWGHGTQVTVSS", "MEASURED ENDPOINT": "polyreactivity (PSR sort gate)", "OBSERVED RESULT": "high polyreactivity"}

====

experiment: yeast display, Sf9 membrane polyspecificity reagent, FACS + sequencing; frameworks hold sequencing errors

{"QUERY SEQUENCE": "QVQQQESGGGRCSGRRTTPGLRGERHYFSLLHGLVSPGAGQEREFVAAIAVRSTYYADSAKGRFTINRDNAKYTVYLQMNSLKPEDTSVYSCAAYYSYYGGDYWGQGTQVTVSS", "polyreactivity (PSR sort gate)": "low polyreactivity"}
{"QUERY SEQUENCE": "QVQLVESGGGLVQAGGSLRLSCAASGLTFNLYAMGWYRQAPGKEWELVAAITRNGGSTYYADSVKGPFTISRDNAKNSVYLELNSLKPEDTAVYYCATGWLGTPYGYRRFGYWGQGTQVTVSS", "polyreactivity (PSR sort gate)": "high polyreactivity"}
{"QUERY SEQUENCE": "QVQLVESGGGLVQAGGSLRLSCAASGSIISRNAMGWYRQAPGKERELVATIRYRGGSTYYADSVKGRFTISRDNAKNTVYLQMNSLKPEDTAVYYCAARRSHPPDPRFRYGYWGQGTQVTVSS", "polyreactivity (PSR sort gate)": "high polyreactivity"}
{"QUERY SEQUENCE": "QVQLVESGGGLVQAGGSLRLSCAASGFIFRRYAMGWYRQAPGKERELVAVIRSSGGSTYYADSVKGRFTISRDNAKNTVYLQMNSLKPEDTAVYYCAAVDARSGGYYWTLRYYYWGQGTQVTVSS", "polyreactivity (PSR sort gate)": "high polyreactivity"}
{"QUERY SEQUENCE": "QVQLVESGGGLVQAGGSLRLICAASGRIFNVYAMGWYRQAPGKETELVASITSAGSTYYADSVKGRFTISRDNAKNTVYLQMNSLKPEDTAVYYCNAESYSTWSFGHRYEYDYWGQGTQVTVSS", "polyreactivity (PSR sort gate)": "low polyreactivity"}
{"QUERY SEQUENCE": "QVQLVESGGGLVQAGGSLRISCAASGSTFSYYAMGWYRQAPGKERELVAAISSRGGSTYYADSVKGRFTISRDNAKNTVYLQMNSLKPEDTAVYYCAAVRNRHGYDYWGQGTQVTVSS", "polyreactivity (PSR sort gate)": "high polyreactivity"}
{"QUERY SEQUENCE": "QVQLVESGGGLVQAGGSLRLSCAASGSTFDPNVMGWYRQAPGKERELVAGITWRGGRTYYADSVKGRFTISRDNAKNTVYLQMNSLKPEDTAVYYCNAEDWTRKYDYWGQGTQVTVSS", "polyreactivity (PSR sort gate)": "high polyreactivity"}
{"QUERY SEQUENCE": "QVQHVESGGGLVQAGGSLRLSCAAYGFTFVRYAKGWYRQAPGKEREFVASISARGGNTFYADSVKGRFTISRDNAKNTVFLQMNSLKPEDTAVYYCAKRGPYGTGYGYWGQGTQVTVSS", "polyreactivity (PSR sort gate)": "high polyreactivity"}
{"QUERY SEQUENCE": "QVQLVESGGGLVQAGGSLRLSCAASGSIFIGSVMGWYRQAPGKERELVADITWSGGSTYYADSVKGRFTISRANAKNTVYLQMNSLKPEDTAVYYCAARTFVIGDYDYWYALDSWGQGTQVTVSS", "polyreactivity (PSR sort gate)": "low polyreactivity"}
{"QUERY SEQUENCE": "QVQLVESGGGLVQAGGSLRLSCAASGSTLPNNAMGWYRQAPGKERELVAAISWRGTRTYYADSVKGRFTISRDNAKNTVYLQMNSLKPEDTAVYYCAAGGVGAYDYWGQGTEVTVSS", "polyreactivity (PSR sort gate)": "high polyreactivity"}
{"QUERY SEQUENCE": "QVQLVESGGGLVQAGGSLRLSCAAYGSTFTYYAMGWYRQAPGKERELVAAISSSGGSTYYADSVKGRFTISRDNAKNTVYFQMNSLKPEDTAVYYCAARRKFPYRHDYWGQGTQVTVSS", "polyreactivity (PSR sort gate)": "high polyreactivity"}
